- Test system: Aurora kinase A (Homo sapiens) (UniProt O14965)
- Sequence (O14965 whole entry, looked up): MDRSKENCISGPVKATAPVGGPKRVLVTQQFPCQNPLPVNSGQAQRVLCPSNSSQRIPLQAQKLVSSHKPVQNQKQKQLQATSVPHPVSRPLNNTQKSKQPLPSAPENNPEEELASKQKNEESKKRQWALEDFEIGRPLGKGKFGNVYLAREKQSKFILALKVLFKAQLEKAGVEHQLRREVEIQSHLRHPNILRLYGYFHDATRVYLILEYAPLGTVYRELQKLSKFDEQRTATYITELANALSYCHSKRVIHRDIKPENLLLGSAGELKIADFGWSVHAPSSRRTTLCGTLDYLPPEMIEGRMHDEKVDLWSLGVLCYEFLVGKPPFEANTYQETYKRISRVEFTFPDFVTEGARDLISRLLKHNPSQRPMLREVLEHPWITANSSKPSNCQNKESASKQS
- Protocol description: Inhibition of aurora 2
Value type: Ki (µM)
# output: bare number, implied unit µM

Prompt: Consider the molecule shown here: `c1ccn2c(NC3CCCCC3)c(-c3ccc4[nH]ncc4c3)nc2c1` What is its recorded Ki?
Completion: 8.67

Prompt: What measured Ki goes with `CCNc1nc(-c2ccc3[nH]ncc3c2)cs1` ?
Completion: 3.41

====

Aurora kinase A (Homo sapiens) (UniProt O14965) measurements of Ki, listed per entry.

Prompt: If you can, please state the reported Ki value of `c1ccc(CNc2nc(-c3ccc4[nH]ncc4c3)c(-c3ccccc3)s2)cc1` .
Completion: > 4.9 µM

Prompt: Data request, read-out Ki, for `c1ccc(-c2c(-c3ccc4[nH]ncc4c3)nc3ncccn23)cc1`
Completion: > 4.9 µM

Prompt: For `c1ccc(Nc2nc(-c3ccc4[nH]ncc4c3)c(-c3ccccc3)s2)cc1` , what is its reported Ki?
Completion: > 4.9 µM
